Values were extracted from paper PMC10482274.

# measured.on: BLEG-1 (B3 metallo-β-lactamase) (Shouchella lehensis)
# Construct: wild-type recombinant BLEG-1 (26 kDa), purified by Ni-NTA
# Sequence (A0A060M4R1 entry or part of it): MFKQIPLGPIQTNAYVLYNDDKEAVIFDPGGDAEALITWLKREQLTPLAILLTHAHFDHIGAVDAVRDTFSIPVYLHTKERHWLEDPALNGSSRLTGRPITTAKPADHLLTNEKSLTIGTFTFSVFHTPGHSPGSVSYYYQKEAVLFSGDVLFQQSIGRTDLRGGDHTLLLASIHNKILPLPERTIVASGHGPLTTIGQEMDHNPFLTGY
# protocol.text: circular dichroism titration ([…] nm, non-linear regression); hydrolysis assay at […] nm with the purified enzyme
pKd: −log10 of the molar value.
parameter.measured: pKd

{"input.smiles": "CC1(C)S[C@@H]2[C@H](NC(=O)[C@H](N)c3ccccc3)C(=O)N2[C@H]1C(=O)O", "parameter.measured": "pKd", "numeric.readout": 5.82}
